- ASSAY_SYSTEM: human TLR7 (Homo sapiens (Human), UniProt Q9NYK1)
- Sequence (Q9NYK1 27-1049): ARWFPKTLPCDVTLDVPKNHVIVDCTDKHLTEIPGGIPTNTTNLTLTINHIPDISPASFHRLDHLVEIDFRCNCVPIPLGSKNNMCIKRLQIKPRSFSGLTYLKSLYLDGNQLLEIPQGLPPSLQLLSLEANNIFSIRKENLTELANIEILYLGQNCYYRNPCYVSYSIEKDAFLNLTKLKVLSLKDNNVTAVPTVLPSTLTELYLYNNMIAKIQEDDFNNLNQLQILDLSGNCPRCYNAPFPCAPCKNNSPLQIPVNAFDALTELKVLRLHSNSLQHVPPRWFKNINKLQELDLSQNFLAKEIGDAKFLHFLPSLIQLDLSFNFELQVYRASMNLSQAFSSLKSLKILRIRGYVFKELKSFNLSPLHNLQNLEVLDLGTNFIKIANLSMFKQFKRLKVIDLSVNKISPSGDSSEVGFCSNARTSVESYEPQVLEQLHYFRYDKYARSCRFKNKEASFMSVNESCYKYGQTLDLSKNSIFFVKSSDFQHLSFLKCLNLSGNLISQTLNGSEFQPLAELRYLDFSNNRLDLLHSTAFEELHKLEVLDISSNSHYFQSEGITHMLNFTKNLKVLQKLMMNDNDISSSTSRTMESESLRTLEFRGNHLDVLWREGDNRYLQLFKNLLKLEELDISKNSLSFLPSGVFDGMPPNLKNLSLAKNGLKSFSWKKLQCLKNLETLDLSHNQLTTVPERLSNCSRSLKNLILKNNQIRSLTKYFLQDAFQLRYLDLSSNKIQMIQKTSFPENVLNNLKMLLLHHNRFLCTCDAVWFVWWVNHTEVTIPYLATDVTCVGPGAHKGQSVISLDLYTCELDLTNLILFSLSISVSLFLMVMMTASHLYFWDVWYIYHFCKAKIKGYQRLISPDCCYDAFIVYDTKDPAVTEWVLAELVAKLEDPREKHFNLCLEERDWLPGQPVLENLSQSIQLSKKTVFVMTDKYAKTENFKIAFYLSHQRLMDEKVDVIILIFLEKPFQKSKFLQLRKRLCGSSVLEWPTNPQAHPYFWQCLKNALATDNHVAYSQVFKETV
- ASSAY_SUMMARY: Reporter assay for TLR7 activity, HEK293 transiently transfected with wild type TLR7 and NFκB-luc
- Type: cell-based
- CONDITION_INFO: lowest effective concentration; 24 h transfection
QUANTITY_NAME: TLR7-wt_LEC 24 h

Nc1nc(-c2nc(-c3ccccc3)c[nH]2)nc2c1[nH]c(=O)n2Cc1ccccc1: 4.72 µM
Nc1nc(-c2nc(C3CCCC3)c[nH]2)nc2c1[nH]c(=O)n2Cc1ccccc1: >24.59 µM
Nc1nc(-c2cn[nH]c2)nc2c1[nH]c(=O)n2Cc1ccccc1: >24.59 µM
Nc1nc(-c2ccc[nH]2)nc2c1[nH]c(=O)n2Cc1ccccc1: >24.59 µM

Pending compound:
Fill in: TLR7-wt_LEC 24 h of Nc1nc(-c2cncnc2)nc2c1[nH]c(=O)n2Cc1ccccc1 is ___ >24.59 µM

---

- ASSAY_SYSTEM: human TLR7 (Homo sapiens (Human))
- ASSAY_SUMMARY: Reporter assay for TLR7 activity, HEK293 transiently transfected with wild type TLR7 and NFκB-luc
- Format: cell-based
- CONDITION_INFO: lowest effective concentration; 48 h transfection
Recorded measurements of TLR7-wt_LEC 48 h, one per entry
The answer is to be given in µM; state only the numeric part.

CCc1[nH]c(-c2nc(N)c3[nH]c(=O)n(Cc4ccccc4)c3n2)nc1C1CC1: 6.32

Pending molecule:
Fill in: TLR7-wt_LEC 48 h of Nc1nc(-n2cccn2)nc2c1[nH]c(=O)n2Cc1ccccc1 is ___ 0.22

---

- ASSAY_SYSTEM: human TLR7 (Homo sapiens (Human), UniProt Q9NYK1)
- ASSAY_SUMMARY: Reporter assay for TLR7 activity, HEK293 transiently transfected with wild type TLR7 and NFκB-luc
- Type: cell-based
- CONDITION_INFO: lowest effective concentration; 48 h transfection
QUANTITY_NAME: TLR7-wt_LEC 48 h (µM)
The answer is to be given in µM; state only the numeric part.

The examples below pair each entry with its known result.
Cc1cnn(-c2nc(N)c3[nH]c(=O)n(Cc4ccccc4)c3n2)c1: 0.36
Nc1nc(-c2nccn2CCO)nc2c1[nH]c(=O)n2Cc1ccccc1: 6.03
CN(C)CCOc1ccc(Cn2c(=O)[nH]c3c(N)nc(-c4nc(C5CC5)c[nH]4)nc32)cn1: 16.1

Fill in: TLR7-wt_LEC 48 h of Cc1c[nH]c(-c2nc(N)c3[nH]c(=O)n(Cc4ccccc4)c3n2)n1 is ___ 5.91

Fill in: TLR7-wt_LEC 48 h of Nc1nc(-c2ccco2)nc2c1[nH]c(=O)n2Cc1ccccc1 is ___ 6.34

Fill in: TLR7-wt_LEC 48 h of CCOP(=O)(CCCn1ccnc1-c1nc(N)c2[nH]c(=O)n(Cc3ccccc3)c2n1)OCC is ___ 14.12

Fill in: TLR7-wt_LEC 48 h of COCCn1ccnc1-c1nc(N)c2[nH]c(=O)n(Cc3ccccc3)c2n1 is ___ 5.36

Fill in: TLR7-wt_LEC 48 h of Cc1noc(-c2nc(N)c3[nH]c(=O)n(Cc4ccccc4)c3n2)n1 is ___ 21.66

Fill in: TLR7-wt_LEC 48 h of Cc1[nH]c(-c2nc(N)c3[nH]c(=O)n(Cc4ccccc4)c3n2)nc1C1CC1 is ___ 21.47

Fill in: TLR7-wt_LEC 48 h of COc1ccnc(Cn2c(=O)[nH]c3c(N)nc(-n4cccn4)nc32)c1OC is ___ 0.31

Fill in: TLR7-wt_LEC 48 h of Nc1nc(-c2ncc[nH]2)nc2c1[nH]c(=O)n2Cc1ccccc1 is ___ 1.23

Fill in: TLR7-wt_LEC 48 h of Nc1nc(-c2ccn[nH]2)nc2c1[nH]c(=O)n2Cc1cn2ccccc2n1 is ___ 0.50

Fill in: TLR7-wt_LEC 48 h of Nc1nc(-c2ccn[nH]2)nc2c1[nH]c(=O)n2Cc1cccc(CO)c1 is ___ 0.21

Fill in: TLR7-wt_LEC 48 h of Cc1ccc(Cn2c(=O)[nH]c3c(N)nc(-c4nc(C5CC5)c[nH]4)nc32)cn1 is ___ 2.42

Fill in: TLR7-wt_LEC 48 h of Nc1nc(-c2ncc[nH]2)nc2c1[nH]c(=O)n2Cc1cccc(CN2CCCC2)c1 is ___ 2.46

Fill in: TLR7-wt_LEC 48 h of Cc1ccc(Cn2c(=O)[nH]c3c(N)nc(-c4ncc[nH]4)nc32)cn1 is ___ 0.88

Fill in: TLR7-wt_LEC 48 h of Nc1nc(-c2ncc[nH]2)nc2c1[nH]c(=O)n2Cc1ccc2c(c1)CNCC2 is ___ 1.81

Fill in: TLR7-wt_LEC 48 h of Nc1nc(-c2ccn[nH]2)nc2c1[nH]c(=O)n2Cc1ccccc1 is ___ 0.23

Fill in: TLR7-wt_LEC 48 h of Nc1nc(-c2nc(C3CC3)c[nH]2)nc2c1[nH]c(=O)n2CCCCCCN1CCCC1 is ___ 21.2

Fill in: TLR7-wt_LEC 48 h of Cn1ccnc1-c1nc(N)c2[nH]c(=O)n(Cc3ccccc3)c2n1 is ___ 8.08

Fill in: TLR7-wt_LEC 48 h of COC(=O)c1cccc(Cn2c(=O)[nH]c3c(N)nc(-c4ccn[nH]4)nc32)c1 is ___ 0.10

Fill in: TLR7-wt_LEC 48 h of Nc1nc(-c2ccc[nH]2)nc2c1[nH]c(=O)n2Cc1ccccc1 is ___ 20.31

Fill in: TLR7-wt_LEC 48 h of Nc1nc(-c2cnco2)nc2c1[nH]c(=O)n2Cc1ccccc1 is ___ 6.5

---

- ASSAY_SYSTEM: human TLR7 (Homo sapiens (Human), UniProt Q9NYK1)
- ASSAY_SUMMARY: Reporter assay for TLR7 activity, HEK293 transiently transfected with wild type TLR7 and NFκB-luc
- Assay type: cell-based
- CONDITION_INFO: lowest effective concentration; 48 h transfection
QUANTITY_NAME: TLR7-wt_LEC 48 h (µM)
The answer is to be given in µM; state only the numeric part.

Nc1nc(-n2cccn2)nc2c1[nH]c(=O)n2Cc1cccc(CO)c1 [Compound 39]: 0.05
COC(=O)COc1ccc(Cn2c(=O)[nH]c3c(N)nc(-c4ncc[nH]4)nc32)cn1 [Compound 57]: 0.44
Nc1nc(-c2nc(C(F)(F)F)c[nH]2)nc2c1[nH]c(=O)n2Cc1ccccc1 [Compound 31]: 23.23

Recorded TLR7-wt_LEC 48 h for Nc1nc(-n2cccn2)nc2c1[nH]c(=O)n2Cc1cn2ccccc2n1 [Compound 48] with human TLR7 (Homo sapiens (Human), UniProt Q9NYK1), please? 0.01

Recorded TLR7-wt_LEC 48 h for Nc1nc(-c2cc(C3CC3)n[nH]2)nc2c1[nH]c(=O)n2Cc1ccccc1 [Compound 51] with human TLR7 (Homo sapiens (Human), UniProt Q9NYK1), please? 0.16

Recorded TLR7-wt_LEC 48 h for Nc1nc(-c2ccn[nH]2)nc2c1[nH]c(=O)n2Cc1cccc(C(=O)O)c1 [Compound 45] with human TLR7 (Homo sapiens (Human), UniProt Q9NYK1), please? 0.58

Recorded TLR7-wt_LEC 48 h for Cl.Nc1nc(-n2cccn2)nc2c1[nH]c(=O)n2Cc1cccc(CP(=O)(O)O)c1 [Compound 41] with human TLR7 (Homo sapiens (Human), UniProt Q9NYK1), please? 0.03

Recorded TLR7-wt_LEC 48 h for CCc1c[nH]c(-c2nc(N)c3[nH]c(=O)n(Cc4ccccc4)c3n2)n1 [Compound 30] with human TLR7 (Homo sapiens (Human), UniProt Q9NYK1), please? 12.71

---

- ASSAY_SYSTEM: human TLR7 (Homo sapiens (Human), UniProt Q9NYK1)
- ASSAY_SUMMARY: Reporter assay for TLR7 activity, HEK293 transiently transfected with wild type TLR7 and NFκB-luc
- Assay type: cell-based
- CONDITION_INFO: lowest effective concentration; 48 h transfection
Recorded measurements of TLR7-wt_LEC 48 h, one per entry

Nc1nc(-c2ncc[nH]2)nc2c1[nH]c(=O)n2CC1CCOCC1 [Compound 63]: >25 µM

Fill in: TLR7-wt_LEC 48 h of Nc1nc(-c2nc(C3CC3)c[nH]2)nc2c1[nH]c(=O)n2CC1CCOCC1 [Compound 10] is ___ >25 µM

Fill in: TLR7-wt_LEC 48 h of Nc1nc(-c2cncnc2)nc2c1[nH]c(=O)n2Cc1ccccc1 [Compound 15] is ___ >25 µM

---

- ASSAY_SYSTEM: human TLR7 (Homo sapiens (Human))
- ASSAY_SUMMARY: Reporter assay for TLR7 activity, HEK293 transiently transfected with wild type TLR7 and NFκB-luc
- Format: cell-based
- CONDITION_INFO: lowest effective concentration; 48 h transfection
QUANTITY_NAME: TLR7-wt_LEC 48 h (µM)
The answer is to be given in µM; state only the numeric part.

The examples below pair each entry with its known result.
Nc1nc(-n2cccn2)nc2c1[nH]c(=O)n2Cc1cccc(C(=O)O)c1 [Compound 38]: 0.38
CCOP(=O)(Cc1cccc(Cn2c(=O)[nH]c3c(N)nc(-n4cccn4)nc32)c1)OCC [Compound 40]: 0.03
COC(=O)c1cccc(Cn2c(=O)[nH]c3c(N)nc(-n4cccn4)nc32)c1 [Compound 37]: 0.05
Nc1nc(-c2ncc[nH]2)nc2c1[nH]c(=O)n2Cc1ccc(OCC(=O)O)nc1 [Compound 58]: 0.99
Nc1nc(-c2nc(C3CC3)c[nH]2)nc2c1[nH]c(=O)n2Cc1ccccc1 [Compound 1]: 8.25
Cc1ccc(Cn2c(=O)[nH]c3c(N)nc(-n4cccn4)nc32)cn1 [Compound 50]: 0.03
Nc1nc(-c2ccn(CCO)n2)nc2c1[nH]c(=O)n2Cc1ccccc1 [Compound 52]: 4.42

Pending compound:
Fill in: TLR7-wt_LEC 48 h of Cc1cn[nH]c1-c1nc(N)c2[nH]c(=O)n(Cc3ccccc3)c2n1 [Compound 53] is ___ 3.17
